- testSummary: qHTS assay for small molecule disruptors of the mitochondrial membrane potential (AID 720635)
- conditionParameters: HepG2 mitochondrial membrane potential, Mito-MPS dye ratio; series mostly up to 83.2 µM
Results filed as inconclusive are left out. Activity calls are given as the source filed them. Calls follow the shape of the dose curve; as a rule, active = well fitted inhibition curve with a large enough effect in the signal ratio in the repeat runs; inconclusive = weak or mixed curves, or effect the other way; inactive = flat fitted curve, though single readings scatter; the % refers to the signal ratio.
Your response should consist of one outcome taken from Yes = active, No = inactive

Solved cases (3 shown):
* O=C(O)C(Br)CBr (centres undefined) | No
* CC(Cl)(Cl)[N+](=O)[O-] | No
* COP(=S)(OC)Oc1c(Cl)cc(C)cc1Cl | Yes

Shift focus to the following entry.
Tell me the recorded outcome of this test for ClCCOCOCCCl .
No

* * *

- subjectOfTest: Cytochrome P450 2C19 (Homo sapiens) (UniProt P33261)
- Sequence (P33261 whole entry, looked up): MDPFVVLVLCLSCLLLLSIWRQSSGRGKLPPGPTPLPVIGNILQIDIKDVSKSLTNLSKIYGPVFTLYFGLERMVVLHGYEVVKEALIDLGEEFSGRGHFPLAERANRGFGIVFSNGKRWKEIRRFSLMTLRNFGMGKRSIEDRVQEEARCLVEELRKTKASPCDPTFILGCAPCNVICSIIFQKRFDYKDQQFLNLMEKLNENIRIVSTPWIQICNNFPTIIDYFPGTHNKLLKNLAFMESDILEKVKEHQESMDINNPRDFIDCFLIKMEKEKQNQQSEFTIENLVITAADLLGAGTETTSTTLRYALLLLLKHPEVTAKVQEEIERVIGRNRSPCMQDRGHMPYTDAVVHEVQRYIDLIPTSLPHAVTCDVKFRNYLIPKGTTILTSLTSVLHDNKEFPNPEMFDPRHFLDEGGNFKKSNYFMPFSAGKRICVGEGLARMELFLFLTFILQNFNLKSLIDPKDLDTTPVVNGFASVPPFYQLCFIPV
- testSummary: Cytochrome P450 Family 2 Subfamily C Member 19 (CYP2C19) small molecule antagonists: luciferase reporter qHTS assay (AID 1671197); also: nearly all actives have a fitted effect of over 65% in size
- conditionParameters: P450-Glo CYP2C19 enzyme, luciferin luminescence, 1 h; series mostly up to 115 µM
Records with an inconclusive call do not appear. Active and inactive are the calls of the source. Calls come from the whole dose curve; as a rule, active = well fitted inhibition curve with a large enough effect in the repeat runs; inconclusive = weak or mixed curves; inactive = no such curve, though single readings can be large or run the other way.
Your response should consist of one outcome taken from active, inactive

Solved cases (5 shown):
- CCCCC(=O)Cl: inactive
- O=C1OC(CCN2CCCCC2)OC1(c1ccccc1)c1ccccc1 (configuration not stated): active
- Clc1ccccc1N1CCNCC1: inactive
- ClC(Cl)Br: inactive
- COC(C)(C)C: inactive

Tell me the recorded outcome of this test for CCC(C)n1c(=O)[nH]c(C)c(Br)c1=O (configuration not stated) .
active

Tell me the recorded outcome of this test for CC(N)=S .
active

Tell me the recorded outcome of this test for CCCSP(=O)(OCC)Oc1ccc(Br)cc1Cl (configuration not stated) .
active

Tell me the recorded outcome of this test for CS(=O)(=O)c1cc(C(F)(F)F)ccc1C(=O)c1cnoc1C1CC1 .
active

Tell me the recorded outcome of this test for CCS(=O)(=O)C(C)(C)S(=O)(=O)CC .
inactive

Tell me the recorded outcome of this test for COc1cccc(C(=O)NN(C(=O)c2cc(C)cc(C)c2)C(C)(C)C)c1C .
active

* * *

- testSummary: qHTS RealTime-Glo MT Cell Viability Assay in HepG2 cells - 16 hour (AID 1224885); also: nearly all actives have a fitted effect of over 50% in size
- conditionParameters: RealTime-Glo luminescence; series mostly up to 76.8 µM
Records with an inconclusive call do not appear. The source made the active and inactive calls. Calls follow the shape of the dose curve; as a rule, active = well fitted cell-killing curve with a large enough effect in the repeat runs; inconclusive = weak or mixed curves; inactive = flat fitted curve, though single readings scatter.
Your response should consist of one outcome taken from y = active, n = inactive

Solved cases (5 shown):
• CC(C)[N+](=O)[O-] = n
• CC(C)COP(=O)(OCC(C)C)OCC(C)C = n
• OCCSCSCCO = n
• [Cl][Sn]([Cl])([Cl])[Cl] = n
• CNC(=O)Oc1ccccc1C1OCCO1 = n

Tell me the recorded outcome of this test for O=C(O)c1cccc(Cl)c1 .
n

Tell me the recorded outcome of this test for ClCC(Cl)(Cl)Cl .
n

* * *

- subjectOfTest: Nuclear receptor subfamily 1 group I member 2 (Homo sapiens) (UniProt O75469)
- Sequence (O75469 whole entry, looked up): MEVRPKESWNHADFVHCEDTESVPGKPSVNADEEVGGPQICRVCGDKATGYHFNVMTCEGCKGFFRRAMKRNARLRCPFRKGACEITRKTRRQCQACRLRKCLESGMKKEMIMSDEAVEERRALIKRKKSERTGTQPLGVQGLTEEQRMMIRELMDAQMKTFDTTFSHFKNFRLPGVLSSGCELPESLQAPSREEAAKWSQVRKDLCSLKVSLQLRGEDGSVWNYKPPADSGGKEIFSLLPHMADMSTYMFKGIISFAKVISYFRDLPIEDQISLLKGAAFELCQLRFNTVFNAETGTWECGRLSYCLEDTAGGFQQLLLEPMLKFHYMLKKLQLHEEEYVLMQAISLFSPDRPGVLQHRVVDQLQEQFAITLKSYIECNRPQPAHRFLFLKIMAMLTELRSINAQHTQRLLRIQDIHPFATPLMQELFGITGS
- testSummary: Human pregnane X receptor (PXR) small molecule agonists, qHTS assay (AID 1346982); also: nearly all actives have a fitted effect of over 35% in size
- conditionParameters: PXR-Luc HepG2, CYP3A4 luciferase reporter, 24 h; series mostly up to 92.4 µM
Records with an inconclusive call do not appear. The source made the active and inactive calls. Calls come from the whole dose curve; as a rule, active = well fitted activation curve with a large enough effect in the repeat runs; inconclusive = weak or mixed curves; inactive = no such curve, though single readings can be large or run the other way.
Your response should consist of one outcome taken from Y for active, N for inactive

- C[C@H]1CCC[C@H](O)CCCCCc2cc(O)cc(O)c2C(=O)O1: Y
- CCC(C)n1c(=O)[nH]c(C)c(Br)c1=O (configuration not stated): N

Tell me the recorded outcome of this test for C[C@]1(O)CC[C@H]2[C@@H]3CCC4=CC(=O)CC[C@]4(C)[C@@]3(F)[C@@H](O)C[C@@]21C .
Y

Tell me the recorded outcome of this test for COC(=O)c1ccccc1S(=O)(=O)NC(=O)N(C)c1nc(C)nc(OC)n1 .
N

Tell me the recorded outcome of this test for CS(=O)(=O)c1cc(C(F)(F)F)ccc1C(=O)c1cnoc1C1CC1 .
N

Tell me the recorded outcome of this test for CC(Cl)(Cl)[N+](=O)[O-] .
N

Tell me the recorded outcome of this test for CCOC(=O)NC(=S)Nc1ccccc1NC(=S)NC(=O)OCC .
Y
